Test: log P determination by HPLC on reversed-phase columns (C 18), analogous to OECD Guideline 117
Type: physicochemical
Settings: method [a]
Mark YES only when logP[a] stays strictly below 3. Values equal to the cut-off are NO.

Report whether reported logP[a] is lower than 3 (strictly) for Cc1cc(F)c(N2C(=O)CN(C(=O)N(C)C)C2=O)cc1SCC(F)(F)F [compound 130]
YES

Can you handle Cc1cc(F)c(N2C(=O)CN(C(=O)NCC(C)C)C2=S)cc1[S+]([O-])CC(F)(F)F (stereo not drawn) [Ex. No. 13] next?
NO

Then what about the compound Cc1cc(C)c([S+]([O-])CC(F)(F)F)cc1N1C(=O)CN(C(=O)NCc2ccccc2)C1=O (racemic) [compound 98] ?
YES

What would you report for Cc1cc(F)c(N2C(=O)N(C(=O)NCc3ccccc3)C(C)(C)C2=O)cc1SCC(F)(F)F [compound 77] ?
NO

Try Cc1cc(Cl)c(N2C(=O)CN(C(=O)Nc3ccc(F)cc3)C2=O)cc1[S+]([O-])CC(F)(F)F (racemic) [compound 100] next.
NO

Moving on to CC(C)CNC(=O)N1CC(=O)N(c2cc([S+]([O-])CC(F)(F)F)c(Cl)cc2Cl)C1=O (racemic) [compound 113]
NO

Please give the result for Cc1cc(Cl)c(N2C(=O)CN(C(=O)Nc3cccc(CC(F)(F)F)c3)C2=O)cc1SCC(F)(F)F [compound 58] too.
NO

Next compound up: Cc1cc(F)c(N2C(=O)CN(C(=O)N3CCC(F)(F)CC3)C2=O)cc1[S+]([O-])CC(F)(F)F (stereo not drawn) [compound 132]
YES

Please give the result for Cc1cc(Cl)c(N2C(=O)CN(C(=O)NCc3ccccc3)C2=O)cc1SCC(F)(F)F [compound 57] too.
NO

COCCNC(=O)N1CC(=O)N(c2cc(SCC(F)(F)F)c(C)cc2F)C1=O [compound 66] , same question.
YES

Subsequent entry: Cc1cc(C)c([S+]([O-])CC(F)(F)F)cc1N1C(=O)CN(C(=O)Nc2cccc(Cl)c2)C1=O (racemic) [compound 69]
NO

Now this one: Cc1cc(F)c(N2C(=O)CN(C(=O)NC(C)(C)C)C2=O)cc1[S+]([O-])CC(F)(F)F (racemic) [compound 68]
YES

###

Experiment: log P determination by HPLC on reversed-phase columns (C 18), analogous to OECD Guideline 117
Type: physicochemical
Conditions: method [a]
VALUE KIND: logP[a]
Give the figure by itself; no unit, no explanation.

Quick one: logP[a] of CC(C)CNC(=O)N1CC(=O)N(c2cc(SCC(F)(F)F)c(Cl)cc2Cl)C1=O ?
3.91

And for Cc1cc(F)c(N2C(=O)CN(C(=O)N3CCN(C)CC3)C2=O)cc1SCC(F)(F)F ?
2.5

Next compound: Cc1cc(Cl)c(N2C(=O)CN(C(=O)Nc3ccc(F)cc3)C2=O)cc1SCC(F)(F)F
4.05

Then Cc1cc(F)c(N2C(=O)CN(C(=O)N3CCC(F)(F)CC3)C2=O)cc1SCC(F)(F)F ?
3.27

###

Experiment: log P determination by HPLC on reversed-phase columns (C 18), analogous to OECD Guideline 117
Type: physicochemical
Conditions: method [b]
Quick rule for you: logP[b] under 4 gets Y, anything else gets N.

Strictly below 4 in logP[b]? Cc1cc(C)c(N2C(=O)CN(C(=O)NCC(F)(F)F)C2=O)cc1SCC(F)(F)F [compound 38]
Y

// query: CCNC(=O)N1CC(=O)N(c2cc(SCC(F)(F)F)c(C)cc2F)C1=S [Ex. No. 8]
Y

Now give it for Cc1cc(F)c(N2C(=O)CN(C(=S)NCC(F)(F)F)C2=O)cc1SCC(F)(F)F [compound 102] too.
Y

# iterate: Cc1cc(Cl)c(N2C(=O)CN(C(=O)Nc3cccc(CC(F)(F)F)c3)C2=O)cc1[S+]([O-])CC(F)(F)F (racemic) [compound 71]
Y

Try Cc1cc(F)c(N2C(=O)N(C(=O)NCc3ccccc3)C(C)(C)C2=O)cc1SCC(F)(F)F [compound 77] next.
N

Okay, and Cc1cc(C)c([S+]([O-])CC(F)(F)F)cc1N1C(=O)CN(C(=O)Nc2cccc(Cl)c2)C1=O (racemic) [compound 69] ?
Y
